The following compounds are listed with their measured kinase still bound, per cent of control values.
TARGET: RAF1 (human) (UniProt P04049)
Sequence (P04049 whole entry, looked up): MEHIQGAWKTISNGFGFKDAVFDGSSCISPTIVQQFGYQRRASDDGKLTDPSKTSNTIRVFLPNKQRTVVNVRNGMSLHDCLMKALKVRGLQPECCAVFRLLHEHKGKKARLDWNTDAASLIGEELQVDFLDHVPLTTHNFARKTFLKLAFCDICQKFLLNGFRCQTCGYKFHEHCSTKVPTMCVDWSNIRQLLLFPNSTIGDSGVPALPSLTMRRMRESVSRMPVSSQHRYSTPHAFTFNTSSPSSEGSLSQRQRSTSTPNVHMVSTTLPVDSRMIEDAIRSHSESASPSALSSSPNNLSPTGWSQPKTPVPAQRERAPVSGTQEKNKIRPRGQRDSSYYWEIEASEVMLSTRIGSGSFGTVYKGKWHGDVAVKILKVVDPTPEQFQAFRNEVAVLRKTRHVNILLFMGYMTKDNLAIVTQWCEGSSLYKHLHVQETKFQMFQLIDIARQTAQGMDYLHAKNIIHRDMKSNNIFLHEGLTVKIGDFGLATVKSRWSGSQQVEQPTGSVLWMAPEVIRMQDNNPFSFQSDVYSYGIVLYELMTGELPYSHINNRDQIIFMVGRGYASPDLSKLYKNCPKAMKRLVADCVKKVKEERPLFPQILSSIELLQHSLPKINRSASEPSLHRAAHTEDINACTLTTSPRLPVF
EXPERIMENT_DESCRIPTION: KINOMEscan competition binding
RECORDED_CONDITIONS: compound 10.0 µM
Output spec: scalar in %, unitless text.

See these solved cases before continuing.
INSERT INTO results (compound, recorded_endpoint, quantitative_result) VALUES
  ('O=C(NOC[C@H](O)CO)c1ccc(F)c(F)c1Nc1ccc(I)cc1F', 'kinase still bound, per cent of control', 99),
  ('Cc1ccc(NC(=O)c2cccc(C(C)(C)C#N)c2)cc1Nc1ccc2ncn(C)c(=O)c2c1', 'kinase still bound, per cent of control', 2.3),
  ('CC[C@@H]1C(=O)N(C)c2cnc(Nc3ccc(C(=O)NC4CCN(C)CC4)cc3OC)nc2N1C1CCCC1', 'kinase still bound, per cent of control', 100),
  ('COc1cc(C(=O)NC2CCN(C)CC2)ccc1Nc1ncc2c(n1)N(C1CCCC1)C(C)CC(=O)N2C (stereo not given)', 'kinase still bound, per cent of control', 100);

Now for a further compound.
Req: Notebook: pull reported kinase still bound, per cent of control for RAF1 (human) (UniProt P04049), entry "Nc1ccc(-c2ccc3ncc4ccc(=O)n(-c5cccc(C(F)(F)F)c5)c4c3c2)cn1"
Resp: 100

* * *

TARGET: CLK1 (human) (UniProt P49759)
Sequence (P49759 whole entry, looked up): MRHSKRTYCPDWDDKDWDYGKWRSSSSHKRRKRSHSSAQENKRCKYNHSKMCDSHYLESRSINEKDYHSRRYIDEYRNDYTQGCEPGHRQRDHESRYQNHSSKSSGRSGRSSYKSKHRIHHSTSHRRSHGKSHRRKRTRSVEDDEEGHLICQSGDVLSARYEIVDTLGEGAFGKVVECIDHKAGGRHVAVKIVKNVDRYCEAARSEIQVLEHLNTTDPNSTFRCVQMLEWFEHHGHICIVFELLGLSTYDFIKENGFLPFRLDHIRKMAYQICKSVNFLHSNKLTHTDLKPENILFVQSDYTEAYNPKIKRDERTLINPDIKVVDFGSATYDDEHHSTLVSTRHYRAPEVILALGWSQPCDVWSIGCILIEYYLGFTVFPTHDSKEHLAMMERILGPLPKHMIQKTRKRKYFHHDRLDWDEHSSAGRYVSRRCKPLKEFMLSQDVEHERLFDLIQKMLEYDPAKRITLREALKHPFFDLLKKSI
EXPERIMENT_DESCRIPTION: KINOMEscan competition binding
RECORDED_CONDITIONS: compound 10.0 µM
RECORDED_ENDPOINT: kinase still bound, per cent of control (%)
Reply with just the number (in %).

INSERT INTO assay_data (structure_notation, recorded_endpoint, quantitative_result) VALUES
  ('CCN1CCN(Cc2ccc(Nc3ncc4c(n3)N(C)c3ccccc3C(=O)N4C)cc2C(F)(F)F)CC1', 'kinase still bound, per cent of control', 86);

Req: # query: kinase still bound, per cent of control | item "O=C1Nc2ccc(I)cc2/C1=C/c1cc(Br)c(O)c(Br)c1" | system: CLK1 (human) (UniProt P49759)
Resp: 34

Req: What reported kinase still bound, per cent of control corresponds to "N#Cc1c(NC(=O)c2cccc3ccccc23)sc2c1CCCC2" on CLK1 (human) (UniProt P49759)?
Resp: 69

Req: Lab note: need kinase still bound, per cent of control for "Cn1c(=O)n(-c2ccc(C(C)(C)C#N)cc2)c2c3cc(-c4cnc5ccccc5c4)ccc3ncc21" on CLK1 (human) (UniProt P49759), anyone have it?
Resp: 23

Req: Please tell me: kinase still bound, per cent of control of "Cc1ccc2nc(NCCN)c3ncc(C)n3c2c1" , system CLK1 (human) (UniProt P49759)?
Resp: 72

Req: What reported kinase still bound, per cent of control corresponds to "O=C(NOC[C@H](O)CO)c1ccc(F)c(F)c1Nc1ccc(I)cc1F" on CLK1 (human) (UniProt P49759)?
Resp: 95

Req: Query for CLK1 (human) (UniProt P49759): what kinase still bound, per cent of control does the record show for "C=CC(=O)Nc1cccc(Oc2nc(Nc3ccc(N4CCN(C)CC4)cc3OC)ncc2Cl)c1" ?
Resp: 13

* * *

TARGET: PAK4 (human)
EXPERIMENT_DESCRIPTION: KINOMEscan competition binding
RECORDED_CONDITIONS: compound 10.0 µM
Consider the following molecules and their measured kinase still bound, per cent of control readings.
Please respond with the number in % and leave the unit unwritten.

Req: Param item = "CCOc1cc2ncc(C#N)c(Nc3ccc(OCc4ccccn4)c(Cl)c3)c2cc1NC(=O)/C=C/CN(C)C" ; retrieve measured kinase still bound, per cent of control.
Resp: 93

Req: Please look up its kinase still bound, per cent of control: "CCC(=O)N1CCN(c2ccc(-n3c(=O)ccc4cnc5ccc(-c6cnc7ccccc7c6)cc5c43)cc2C(F)(F)F)CC1"
Resp: 100

Req: Query (molecule): "Cc1ccc2nc(NCCN)c3ncc(C)n3c2c1" ; field requested: kinase still bound, per cent of control
Resp: 100

Req: Any idea what its kinase still bound, per cent of control is? The molecule is "Cc1ccc(NC(=O)c2cccc(C(C)(C)C#N)c2)cc1Nc1ccc2ncn(C)c(=O)c2c1"
Resp: 72

Req: What measured kinase still bound, per cent of control goes with "C[C@@H](Oc1cc(-n2cnc3ccc(CN4CCN(C)CC4)cc32)sc1C(N)=O)c1ccccc1C(F)(F)F" ?
Resp: 37

Req: I would be grateful if you could share the reported kinase still bound, per cent of control for "C=CC(=O)Nc1cc(NC(=O)c2ccc(C)c(NC(=O)c3ccno3)c2)cc(C(F)(F)F)c1" .
Resp: 93
